experimental.target: UvrA (Escherichia coli, UniProt P0A698)
Construct: recombinant, IPTG-induced, Ni-NTA purified; plasmid as in Bernacchia et al. 2023; homodimer
Sequence (P0A698 whole entry): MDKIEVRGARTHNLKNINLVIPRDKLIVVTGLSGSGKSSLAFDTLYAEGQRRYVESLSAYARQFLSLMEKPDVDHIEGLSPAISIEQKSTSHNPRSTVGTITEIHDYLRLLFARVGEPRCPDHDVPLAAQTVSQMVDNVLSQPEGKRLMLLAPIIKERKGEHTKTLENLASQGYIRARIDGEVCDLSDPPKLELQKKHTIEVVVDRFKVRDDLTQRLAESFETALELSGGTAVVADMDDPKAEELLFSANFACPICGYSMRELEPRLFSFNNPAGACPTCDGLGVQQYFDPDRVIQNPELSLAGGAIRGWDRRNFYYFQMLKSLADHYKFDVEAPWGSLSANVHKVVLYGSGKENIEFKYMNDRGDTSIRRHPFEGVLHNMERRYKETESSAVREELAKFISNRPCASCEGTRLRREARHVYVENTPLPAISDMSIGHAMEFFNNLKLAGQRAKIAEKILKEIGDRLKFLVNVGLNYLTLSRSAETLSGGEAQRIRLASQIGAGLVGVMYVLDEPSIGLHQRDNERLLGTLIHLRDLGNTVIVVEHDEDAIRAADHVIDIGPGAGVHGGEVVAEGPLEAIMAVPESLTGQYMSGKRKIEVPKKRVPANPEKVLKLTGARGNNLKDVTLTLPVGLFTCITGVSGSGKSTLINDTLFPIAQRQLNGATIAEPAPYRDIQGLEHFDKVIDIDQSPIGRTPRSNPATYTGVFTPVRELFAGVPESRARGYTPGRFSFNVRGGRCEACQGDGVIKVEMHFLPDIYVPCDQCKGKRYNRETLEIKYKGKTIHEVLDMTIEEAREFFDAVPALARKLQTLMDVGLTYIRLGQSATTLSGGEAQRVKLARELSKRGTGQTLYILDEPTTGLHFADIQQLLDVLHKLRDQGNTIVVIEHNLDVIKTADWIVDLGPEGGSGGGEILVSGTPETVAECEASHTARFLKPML
assay.method.text: NADH-linked ATPase assay, Hill fit

{"smiles.str": "Nc1nc(Nc2ccc3c(c2)CC[C@@H](N2CCCC2)CC3)nn1-c1cc2c(nn1)-c1ccccc1CCC2", "experimental.target": "UvrA (Escherichia coli, UniProt P0A698)", "IC50, µM": 7.49}
